# EXPERIMENTAL_TARGET: Ataxin-2 (Homo sapiens) (UniProt Q99700)
# Sequence (Q99700 whole entry): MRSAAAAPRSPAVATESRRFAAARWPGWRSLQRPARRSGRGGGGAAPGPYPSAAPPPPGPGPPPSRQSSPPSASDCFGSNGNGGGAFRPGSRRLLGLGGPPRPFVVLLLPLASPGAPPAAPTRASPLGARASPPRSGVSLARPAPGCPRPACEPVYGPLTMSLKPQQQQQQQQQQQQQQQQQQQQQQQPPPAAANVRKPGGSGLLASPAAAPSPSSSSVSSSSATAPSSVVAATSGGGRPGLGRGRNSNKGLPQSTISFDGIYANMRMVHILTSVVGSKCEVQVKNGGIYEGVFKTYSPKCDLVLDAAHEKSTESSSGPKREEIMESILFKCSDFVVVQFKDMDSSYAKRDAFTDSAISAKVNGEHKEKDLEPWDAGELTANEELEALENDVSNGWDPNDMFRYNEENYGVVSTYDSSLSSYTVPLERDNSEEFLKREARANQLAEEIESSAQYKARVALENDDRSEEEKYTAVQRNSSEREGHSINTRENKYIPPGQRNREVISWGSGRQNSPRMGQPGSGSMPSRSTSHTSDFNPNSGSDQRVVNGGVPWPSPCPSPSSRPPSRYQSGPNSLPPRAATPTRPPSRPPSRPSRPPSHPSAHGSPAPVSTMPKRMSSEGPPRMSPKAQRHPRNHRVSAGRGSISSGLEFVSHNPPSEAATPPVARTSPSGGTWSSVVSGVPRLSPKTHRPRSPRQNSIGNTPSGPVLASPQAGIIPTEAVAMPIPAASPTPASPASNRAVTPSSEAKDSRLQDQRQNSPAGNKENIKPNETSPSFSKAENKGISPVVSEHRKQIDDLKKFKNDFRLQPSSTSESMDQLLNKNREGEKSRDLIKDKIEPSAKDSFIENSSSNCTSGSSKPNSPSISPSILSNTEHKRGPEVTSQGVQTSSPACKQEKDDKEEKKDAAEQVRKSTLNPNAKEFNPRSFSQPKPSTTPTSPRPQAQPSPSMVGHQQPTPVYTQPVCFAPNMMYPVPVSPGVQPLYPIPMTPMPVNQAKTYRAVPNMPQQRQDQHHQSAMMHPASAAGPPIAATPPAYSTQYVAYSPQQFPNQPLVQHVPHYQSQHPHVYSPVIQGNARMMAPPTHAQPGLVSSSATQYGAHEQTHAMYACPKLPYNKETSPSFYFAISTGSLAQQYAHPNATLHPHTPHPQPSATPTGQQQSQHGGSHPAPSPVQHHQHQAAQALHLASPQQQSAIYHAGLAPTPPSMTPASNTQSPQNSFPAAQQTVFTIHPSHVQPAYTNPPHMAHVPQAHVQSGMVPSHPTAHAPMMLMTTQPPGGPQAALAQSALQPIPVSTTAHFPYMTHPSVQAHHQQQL
# EXPERIMENT_SUMMARY: qHTS for Inhibitors of ATXN expression.
# Type: functional
Out of some 400,000 compounds screened, about 2,100 (0.53%) were called active. About 14% were inconclusive and are not listed. How the calls were made is not given here. This is one part of a sample in which actives are shown more often than they occur.
The reply should name one outcome from t for active, f for inactive

Consider the worked cases shown below.
- COMPOUND: "CCOC(=O)c1cc2c(=O)n3ccccc3nc2n(CC(C)C)/c1=N\\C(=O)COc1ccc(Cl)cc1"
  ASSIGNED_CATEGORY: "f"
- COMPOUND: "Cn1c(N)c(C(=O)COC(=O)CC(NC(=O)c2ccccc2Cl)c2ccccc2)c(=O)n(C)c1=O (centres undefined)"
  ASSIGNED_CATEGORY: "f"
- COMPOUND: "CC(C)(C)C1CCC(CN2C(Nc3ccccc3)=NC[C@@H]2Cc2ccccc2)CC1 (some centres undefined)"
  ASSIGNED_CATEGORY: "t"
- COMPOUND: "CC1C(C#N)=C(SCC(N)=O)N=C2CC(C)(C)CC(O)=C21 (centres undefined)"
  ASSIGNED_CATEGORY: "f"
- COMPOUND: "CCCCCOc1ccc(Br)cc1CSC(=N)N"
  ASSIGNED_CATEGORY: "t"

Could you please tell me the result logged for CC(=O)c1ccccc1NC(=O)COC(=O)c1cc[n+]([O-])cc1 in this assay?
f

Returns: the outcome recorded for N#Cc1ccccc1CSc1nc2ccsc2c(=O)n1Cc1ccccn1 in this assay.
f

Each compound tested received a call. Report the one for CC(C)C[C@H]1CN=C(Nc2ccccc2)N1CCCC1CCCCC1 .
t

How did this test come out for Cc1sc2nc3ccc(NCc4ccco4)nn3c(=O)c2c1C ?
f

----------
# EXPERIMENTAL_TARGET: Ataxin-2 (Homo sapiens)
# EXPERIMENT_SUMMARY: qHTS for Inhibitors of ATXN expression.
# Format: functional
The whole screen tested about 400,000 compounds, of which about 2,100 (0.53%) were called active. Inconclusive results (about 14%) are left out. How the calls were made is not given here. Only a selection was taken, and actives are over-represented in it overall.
Classes to choose from: t = active, f = inactive

- MOLECULE: "O=c1c2sccc2nc(SCc2cc(=O)n3cc(Br)ccc3n2)n1Cc1ccccn1"
  EXPERIMENTAL_TARGET: "Ataxin-2 (Homo sapiens)"
  ASSIGNED_CATEGORY: "f"
- MOLECULE: "Oc1ccc(/C=C/c2ccc3ccccc3n2)cc1"
  EXPERIMENTAL_TARGET: "Ataxin-2 (Homo sapiens)"
  ASSIGNED_CATEGORY: "f"
- MOLECULE: "CC(NS(=O)(=O)c1ccc(Cl)c(Cl)c1)C(=O)OCC(=O)Nc1ccc2c(c1)OCO2 (stereo not given)"
  EXPERIMENTAL_TARGET: "Ataxin-2 (Homo sapiens)"
  ASSIGNED_CATEGORY: "f"
- MOLECULE: "CN(C)c1ccc(C=Cc2nccc3ccccc23)cc1"
  EXPERIMENTAL_TARGET: "Ataxin-2 (Homo sapiens)"
  ASSIGNED_CATEGORY: "f"
- MOLECULE: "CCC(C)n1c(=N)c(C(=O)NC2CCCC2)cc2c(=O)n3ccccc3nc21 (stereo not given)"
  EXPERIMENTAL_TARGET: "Ataxin-2 (Homo sapiens)"
  ASSIGNED_CATEGORY: "f"
- MOLECULE: "COc1ccc(OCc2nc3ccccc3n2C(C)C)cc1"
  EXPERIMENTAL_TARGET: "Ataxin-2 (Homo sapiens)"
  ASSIGNED_CATEGORY: "f"
- MOLECULE: "N#C/C(=C\\Nc1ccc2c[nH]nc2c1)c1nc(-c2ccc(Cl)cc2)cs1"
  EXPERIMENTAL_TARGET: "Ataxin-2 (Homo sapiens)"
  ASSIGNED_CATEGORY: "f"
- MOLECULE: "Cc1[nH]c(N=Nc2ccccc2)nc1N=Nc1ccccc1"
  EXPERIMENTAL_TARGET: "Ataxin-2 (Homo sapiens)"
  ASSIGNED_CATEGORY: "t"
- MOLECULE: "C=CCOC(=O)C(=O)/C=C/c1coc2ccccc2c1=O"
  EXPERIMENTAL_TARGET: "Ataxin-2 (Homo sapiens)"
  ASSIGNED_CATEGORY: "f"
- MOLECULE: "Cn1c(SC2=CS(=O)(=O)c3ccccc32)nc2ccccc21"
  EXPERIMENTAL_TARGET: "Ataxin-2 (Homo sapiens)"
  ASSIGNED_CATEGORY: "t"

Recorded call for O=C(NC1CCC(O)CC1)c1cc(-c2ccco2)nc2ccccc12 (stereo not given) ?
f

For COC(=O)c1c(C(=O)OC)c2c(-c3ccccc3)cc3cccc1n32 , what call appears in the results of this test?
f

Would you mind telling me which call this test gave COc1ccc(OCC(O)Cn2c(=N)n(Cc3ccccc3)c3ccccc32)cc1 (stereo not given) ?
t

----------
# EXPERIMENTAL_TARGET: Ataxin-2 (Homo sapiens) (UniProt Q99700)
# EXPERIMENT_SUMMARY: qHTS for Inhibitors of ATXN expression.
# Type: functional
The whole screen tested about 400,000 compounds, of which about 2,100 (0.53%) were called active. Inconclusive results (about 14%) are left out. No rule for the calls is given here. The list comes from a sample in which actives are over-represented; it also holds close analogues and randomly drawn compounds.
The reply should name one outcome from true = active, false = inactive

// known answers, use as guide
- MOLECULE: "Nc1c(C(=O)Nc2ccc(S(=O)(=O)N3CCCC3)cc2)sc2nc3ccc(OC(F)(F)F)cc3cc12"
  ASSIGNED_CATEGORY: "true"
- MOLECULE: "O=C(Cc1ccccc1C(=O)O)Nc1cccc2ccccc12"
  ASSIGNED_CATEGORY: "false"
- MOLECULE: "CCOc1ccc2nc(O)c(CN(Cc3cccs3)Cc3nnnn3C(C)(C)CC)cc2c1"
  ASSIGNED_CATEGORY: "true"
- MOLECULE: "COCCCNC(=S)N/N=C/c1ccc2c(c1)OCO2"
  ASSIGNED_CATEGORY: "false"

Tell me the recorded outcome of this test for O=c1oc2cc(O)ccc2cc1-c1nc2ccccc2o1 .
false

// param item: CCOc1ccc(NC(=O)c2cn(CC(C)C)c(=O)c3c2c2ccccc2n3C)cc1 ; yields the recorded call
true

Given COC(=O)c1ccc(N/C=C\C(=O)c2ccc3c(c2)OCO3)cc1 , state the outcome it received in this test.
false

Short answer needed: outcome of this test for CNC(=O)NC(=O)C(C)OC(=O)c1c2c(nc3ccccc13)/C(=C/c1cccs1)CC2 (stereo not given) ?
false

Tell me the assay call for CC(=O)NCCNc1nc2c(-c3cccc(C(F)(F)F)c3)nnn2c2ccccc12 please.
false

So what was the verdict on O=C(N/N=C/c1c(O)ccc2ccccc12)c1ccc(Br)o1 in this test?
false

Which outcome was entered for the molecule Cc1ccc(-c2nnn3c2nc(NCCc2ccc(S(N)(=O)=O)cc2)c2ccccc23)cc1 in this test?
false

For CCOc1cccc2sc(NN)nc12 , which call appears in the assay record?
false

State the result this test recorded for Cc1ccc2nc3c(cc(C(=O)NCCc4ccccc4)c(=N)n3CCCN3CCOCC3)c(=O)n2c1 .
false

Tell me the recorded outcome of this test for Cc1ccc(C)c(Sc2ccc(S(=O)(=O)Nc3ccc(C(=O)O)cc3)cc2)c1 .
false

How did this test come out for CNC(=S)N/N=C(\C)c1ccc2c(c1)OCO2 ?
true

----------
# EXPERIMENTAL_TARGET: Ataxin-2 (Homo sapiens)
# EXPERIMENT_SUMMARY: qHTS for Inhibitors of ATXN expression.
# Assay type: functional
In all, about 400,000 compounds went through this assay and about 2,100 (0.53%) were called active. Another 14% or so got no clear call; they are omitted. No rule for the calls is given here. The sample holds actives, similar compounds and a random draw of the others, so the mix is not that of the screen.
One label from this list, please: T (active), F (inactive)

See these solved cases before continuing.
- COMPOUND: "CSc1nn(Cc2ccc(Cl)cc2)c(N(C(C)=O)C(C)=O)c1S(=O)(=O)c1ccccc1"
  ASSIGNED_CATEGORY: "T"
- COMPOUND: "COc1ccccc1CNC(=O)Nc1nc(C(N)CCc2ccccc2)cs1 (centres undefined)"
  ASSIGNED_CATEGORY: "T"
- COMPOUND: "CCCN(CC(=O)Nc1ccc(F)c(F)c1F)C(=O)CN1C(=O)NC2(CCCCC2)C1=O"
  ASSIGNED_CATEGORY: "F"

Please turn your attention to the following entry.
Give the logged outcome of this assay for the following compound: CSc1nn(Cc2ccc(Br)cc2)c(N(C(C)=O)C(C)=O)c1S(=O)(=O)c1ccccc1
T

----------
# EXPERIMENTAL_TARGET: Ataxin-2 (Homo sapiens) (UniProt Q99700)
# EXPERIMENT_SUMMARY: qHTS for Inhibitors of ATXN expression.
# Assay type: functional
Hit rate of the full screen: of about 400,000 compounds, about 2,100 (0.53%) were called active. About 14% were inconclusive and are not listed. The rule behind the calls is not given here. The list comes from a sample in which actives are over-represented; it also holds close analogues and randomly drawn compounds.
Outcomes you can answer with include only these: Y for active, N for inactive

Use the examples below as a reference point.
- COMPOUND: "O=C(Nc1ccc(Cl)cc1)Nc1cccc2nsnc12"
  ASSIGNED_CATEGORY: "N"
- COMPOUND: "CCOc1ccc(/C=N/NC(=O)Cc2cccs2)cc1"
  ASSIGNED_CATEGORY: "N"
- COMPOUND: "Cc1cccc(NC(=O)c2ccc(N(Cc3ccccc3)S(C)(=O)=O)cc2)c1"
  ASSIGNED_CATEGORY: "Y"
- COMPOUND: "CC(C)c1ccc(/C=C(/C#N)c2nnc(NC(=O)c3ccccc3)s2)cc1"
  ASSIGNED_CATEGORY: "N"
- COMPOUND: "COc1ccc(/C=N/NC(=O)c2c(C)nc3ccc(Cl)cn23)cc1OC"
  ASSIGNED_CATEGORY: "N"

Could you kindly confirm the outcome this assay logged for O=C(COc1ccccc1F)Nc1ccc(Cl)c(-c2nc3ccccc3[nH]2)c1 ?
Y

Given Cc1ccccc1NC(=O)c1ccc2snnc2c1 , state the outcome it received in this test.
N

Record request — test call for COc1ccc(NC(=O)c2c(NC(=O)CCC(=O)O)sc3c2CCCCC3)cc1
N

What call does the record list for CCCn1nc(NC(=O)c2cccs2)c2cc3cc(C)ccc3nc21 ?
N

Look up the recorded call for CS(=O)(=O)N(Cc1ccccc1)c1ccc(C(=O)Nc2cccc(Cl)c2)cc1 in this test.
Y

# fetch the recorded call for CN(C(=O)/C=C/c1ccc([N+](=O)[O-])s1)c1ccccc1 here
Y

Record lookup: outcome of this test for CC(C)N(C(=O)CS(=O)(=O)c1ccc(Cl)c(Cl)c1)C(C)C ?
N

Numbers sourced from ChEMBL document CHEMBL1201862.
